tested on: Plasmodium falciparum; experiment: Screen against P. falciparum Asexual Blood Stage (ABS), at 5uM; format: functional, Dd2; settings: tested at 5 uM
Hit rate of the full screen: of about 65,000 compounds, about 2,100 (3.2%) showed an effect of 50% or more. The median lay at about -52%. Only a selection was taken, and strong results are over-represented in it overall.
Would you kindly list INHIBITION for each of these molecules?
Express it in %; write the number only.

Case Cc1nn(C)cc1CN1CCN(CC2(c3ccccc3)CC2)CC1 , Plasmodium falciparum, INHIBITION recorded as 67.2

Case CN(C)c1ccc(C(=O)N2CCCC(n3cccn3)C2)cn1 (stereo unspecified) , Plasmodium falciparum, INHIBITION recorded as -240

Case Cc1nn(C)cc1CN1CCCCCC1c1ccccc1Cl (stereo unspecified) , Plasmodium falciparum, INHIBITION recorded as -104

Case Cc1nn(C)cc1-c1cc(C(F)(F)F)nn1CCC#N , Plasmodium falciparum, INHIBITION recorded as -167

Case CCOCC(=O)NCCn1ccc(-c2ccccn2)n1 , Plasmodium falciparum, INHIBITION recorded as -74.8

Case COCCN1CCN(C(=O)N2CCCC2)Cc2ccc(C)nc21 , Plasmodium falciparum, INHIBITION recorded as -114

Cited source: ChEMBL document CHEMBL4513216
